- assay-notes: Dynamic vapour sorption (DVS) analysis in isotherm at 25° C.
- Assay type: physicochemical
- experimental-context: DVS isotherm 25° C., desorption, about 40% RH (corresponds to about 4 water molecules)
reported-metric: water still contained at the inflection at about 40% RH in desorption

{"compound": "C[C@H](CCC(=O)[O-])[C@H]1CC[C@H]2[C@@H]3C[C@H](O)[C@@H]4C[C@H](O)CC[C@]4(C)[C@H]3CC[C@]12C.[Na+] [NaHDC mixture]", "endpoint-result": "about 18%"}
{"compound": "C[C@H](CCC(=O)[O-])[C@H]1CC[C@H]2[C@@H]3C[C@H](O)[C@@H]4C[C@H](O)CC[C@]4(C)[C@H]3CC[C@]12C.[Na+] [polymorphic form FII]", "endpoint-result": "about 18%"}
{"compound": "C[C@H](CCC(=O)[O-])[C@H]1CC[C@H]2[C@@H]3C[C@H](O)[C@@H]4C[C@H](O)CC[C@]4(C)[C@H]3CC[C@]12C.[Na+] [polymorphic form FI]", "endpoint-result": "about 18%"}
